# testDetails: Stability of crystal forms of salts under influencing factors (illumination, high temperature, high humidity)
# Type: physicochemical
# conditionContext: 40° C., 30 days, open
# Text: The sampling and investigation period was 30 days.
Structures can show the parent of a compound that is named as a salt.
I'd be grateful if you could share measured % Purity for these entries.
Numeric answer only, unit % assumed.

Retrieve % Purity measured for O=C(O)c1ccc2nc(CN3CCC(c4cccc5c4O[C@@H](c4ccc(Cl)cc4F)CO5)CC3)n(C[C@@H]3CCO3)c2c1 [Crystal form E of tromethamine salt] and print it.
85.0

Provide only the value of recorded % Purity for O=C(O)c1ccc2nc(CN3CCC(c4cccc5c4O[C@@H](c4ccc(Cl)cc4F)CO5)CC3)n(C[C@@H]3CCO3)c2c1 [Crystal form A of tromethamine salt]
87.4

For the compound O=C(O)c1ccc2nc(CN3CCC(c4cccc5c4O[C@@H](c4ccc(Cl)cc4F)CO5)CC3)n(C[C@@H]3CCO3)c2c1 [Crystal form I of tartrate salt] , report % Purity.
97.6

For the compound O=C(O)c1ccc2nc(CN3CCC(c4cccc5c4O[C@@H](c4ccc(Cl)cc4F)CO5)CC3)n(C[C@@H]3CCO3)c2c1 [Crystal form D of tromethamine salt] , report % Purity.
99.3

Fill in reported % Purity for this entry: O=C(O)c1ccc2nc(CN3CCC(c4cccc5c4O[C@@H](c4ccc(Cl)cc4F)CO5)CC3)n(C[C@@H]3CCO3)c2c1 [Crystal form I of hydrochloride salt]
97.8

###

# Assay type: physicochemical
# conditionContext: 40° C./75% RH, sealed aluminum foil bag
Counter-ions that a name gives are not always drawn.
propertyMeasured: Crystal form

Completed entries (count: 4):
# compound, propertyMeasured, result
records = [
    ("O=C(O)c1ccc2nc(CN3CCC(c4cccc5c4O[C@@H](c4ccc(Cl)cc4F)CO5)CC3)n(C[C@@H]3CCO3)c2c1 [Crystal form I of tartrate salt]", "Crystal form", "Unchanged"),
    ("O=C(O)c1ccc2nc(CN3CCC(c4cccc5c4O[C@@H](c4ccc(Cl)cc4F)CO5)CC3)n(C[C@@H]3CCO3)c2c1 [Crystal form I of hydrochloride salt]", "Crystal form", "Unchanged"),
    ("O=C(O)c1ccc2nc(CN3CCC(c4cccc5c4O[C@@H](c4ccc(Cl)cc4F)CO5)CC3)n(C[C@@H]3CCO3)c2c1 [Crystal form D of tromethamine salt]", "Crystal form", "Unchanged"),
    ("O=C(O)c1ccc2nc(CN3CCC(c4cccc5c4O[C@@H](c4ccc(Cl)cc4F)CO5)CC3)n(C[C@@H]3CCO3)c2c1 [Crystal form E of tromethamine salt]", "Crystal form", "Unchanged"),
]

Next, consider the following compound.
Identify Crystal form associated with the compound O=C(O)c1ccc2nc(CN3CCC(c4cccc5c4O[C@@H](c4ccc(Cl)cc4F)CO5)CC3)n(C[C@@H]3CCO3)c2c1 [Crystal form A of tromethamine salt]
Unchanged

###

# testDetails: Hygroscopicity of crystal forms of salts (DVS, 25° C.)
# Assay type: physicochemical
Where a name gives a salt, the structure may show the parent alone.
propertyMeasured: hygroscopic weight gain 0.0% RH to 80.0% RH (%)
The response must be a number in % with no trailing unit.

Identify measured hygroscopic weight gain 0.0% RH to 80.0% RH corresponding to O=C(O)c1ccc2nc(CN3CCC(c4cccc5c4O[C@@H](c4ccc(Cl)cc4F)CO5)CC3)n(C[C@@H]3CCO3)c2c1 [Crystal form D of tromethamine salt]
2.45

Fill in hygroscopic weight gain 0.0% RH to 80.0% RH for record O=C(O)c1ccc2nc(CN3CCC(c4cccc5c4O[C@@H](c4ccc(Cl)cc4F)CO5)CC3)n(C[C@@H]3CCO3)c2c1 [Crystal form E of tromethamine salt]
7.27

Consider the molecule O=C(O)c1ccc2nc(CN3CCC(c4cccc5c4O[C@@H](c4ccc(Cl)cc4F)CO5)CC3)n(C[C@@H]3CCO3)c2c1 [Crystal form A of tromethamine salt] and give its recorded hygroscopic weight gain 0.0% RH to 80.0% RH.
5.02

Fill in hygroscopic weight gain 0.0% RH to 80.0% RH for record O=C(O)c1ccc2nc(CN3CCC(c4cccc5c4O[C@@H](c4ccc(Cl)cc4F)CO5)CC3)n(C[C@@H]3CCO3)c2c1 [Crystal form I of tartrate salt]
1.44

###

# testDetails: Stability of crystal forms of salts under influencing factors (illumination, high temperature, high humidity)
# Assay type: physicochemical
# conditionContext: 60° C., 30 days, open
Structures can show the parent of a compound that is named as a salt.

# molecule, Crystal form
data = [
    ("O=C(O)c1ccc2nc(CN3CCC(c4cccc5c4O[C@@H](c4ccc(Cl)cc4F)CO5)CC3)n(C[C@@H]3CCO3)c2c1 [Crystal form D of tromethamine salt]", "Unchanged"),
    ("O=C(O)c1ccc2nc(CN3CCC(c4cccc5c4O[C@@H](c4ccc(Cl)cc4F)CO5)CC3)n(C[C@@H]3CCO3)c2c1 [Crystal form I of tartrate salt]", "Unchanged"),
    ("O=C(O)c1ccc2nc(CN3CCC(c4cccc5c4O[C@@H](c4ccc(Cl)cc4F)CO5)CC3)n(C[C@@H]3CCO3)c2c1 [Crystal form I of hydrochloride salt]", "Unchanged"),
]

###

# testDetails: Stability of crystal forms of salts under influencing factors (illumination, high temperature, high humidity)
# Type: physicochemical
# conditionContext: Initial condition, 0 days
Structures can show the parent of a compound that is named as a salt.
Would you kindly list % Purity for each of these compounds?
Respond numerically; units are % and should not be typed.

Tell me % Purity reported for O=C(O)c1ccc2nc(CN3CCC(c4cccc5c4O[C@@H](c4ccc(Cl)cc4F)CO5)CC3)n(C[C@@H]3CCO3)c2c1 [Crystal form I of tartrate salt]
98.8

Return % Purity for the following compound: O=C(O)c1ccc2nc(CN3CCC(c4cccc5c4O[C@@H](c4ccc(Cl)cc4F)CO5)CC3)n(C[C@@H]3CCO3)c2c1 [Crystal form D of tromethamine salt]
99.7

# return recorded % Purity for input O=C(O)c1ccc2nc(CN3CCC(c4cccc5c4O[C@@H](c4ccc(Cl)cc4F)CO5)CC3)n(C[C@@H]3CCO3)c2c1 [Crystal form E of tromethamine salt]
98.3

Given the compound O=C(O)c1ccc2nc(CN3CCC(c4cccc5c4O[C@@H](c4ccc(Cl)cc4F)CO5)CC3)n(C[C@@H]3CCO3)c2c1 [Crystal form I of hydrochloride salt] , write its reported % Purity.
98.0

Identify measured % Purity associated with O=C(O)c1ccc2nc(CN3CCC(c4cccc5c4O[C@@H](c4ccc(Cl)cc4F)CO5)CC3)n(C[C@@H]3CCO3)c2c1 [Crystal form A of tromethamine salt]
99.5

###

# testDetails: Stability of crystal forms of salts under influencing factors (illumination, high temperature, high humidity)
# Format: physicochemical
# conditionContext: 75% RH, 30 days, open
Counter-ions that a name gives are not always drawn.
propertyMeasured: % Purity (%)
Give just the number in %; leave the unit off.

Given the molecule O=C(O)c1ccc2nc(CN3CCC(c4cccc5c4O[C@@H](c4ccc(Cl)cc4F)CO5)CC3)n(C[C@@H]3CCO3)c2c1 [Crystal form D of tromethamine salt] , write its reported % Purity.
99.6

// Input: O=C(O)c1ccc2nc(CN3CCC(c4cccc5c4O[C@@H](c4ccc(Cl)cc4F)CO5)CC3)n(C[C@@H]3CCO3)c2c1 [Crystal form A of tromethamine salt] . Output its % Purity only.
99.3

Tell us which % Purity value is on record for O=C(O)c1ccc2nc(CN3CCC(c4cccc5c4O[C@@H](c4ccc(Cl)cc4F)CO5)CC3)n(C[C@@H]3CCO3)c2c1 [Crystal form I of tartrate salt]
98.4

Please report % Purity for the following molecule: O=C(O)c1ccc2nc(CN3CCC(c4cccc5c4O[C@@H](c4ccc(Cl)cc4F)CO5)CC3)n(C[C@@H]3CCO3)c2c1 [Crystal form I of hydrochloride salt]
98.1

Return % Purity (reported value) for this molecule: O=C(O)c1ccc2nc(CN3CCC(c4cccc5c4O[C@@H](c4ccc(Cl)cc4F)CO5)CC3)n(C[C@@H]3CCO3)c2c1 [Crystal form E of tromethamine salt]
98.3

###

Give measured % Purity for each item. Keep answers brief.
# Assay type: physicochemical
# conditionContext: Initial condition
Where a name gives a salt, the structure may show the parent alone.
Lab book: enter the figure in %, no units written.

Annotate the molecule O=C(O)c1ccc2nc(CN3CCC(c4cccc5c4O[C@@H](c4ccc(Cl)cc4F)CO5)CC3)n(C[C@@H]3CCO3)c2c1 [Crystal form D of tromethamine salt] with its measured % Purity.
99.7

# return recorded % Purity for input O=C(O)c1ccc2nc(CN3CCC(c4cccc5c4O[C@@H](c4ccc(Cl)cc4F)CO5)CC3)n(C[C@@H]3CCO3)c2c1 [Crystal form α of malate salt]
99.0

Provide measured % Purity value, entry: O=C(O)c1ccc2nc(CN3CCC(c4cccc5c4O[C@@H](c4ccc(Cl)cc4F)CO5)CC3)n(C[C@@H]3CCO3)c2c1 [Crystal form I of hydrochloride salt]
98.0

Return value of % Purity for input O=C(O)c1ccc2nc(CN3CCC(c4cccc5c4O[C@@H](c4ccc(Cl)cc4F)CO5)CC3)n(C[C@@H]3CCO3)c2c1 [Crystal form I of tartrate salt] , no commentary.
98.8

Output % Purity of O=C(O)c1ccc2nc(CN3CCC(c4cccc5c4O[C@@H](c4ccc(Cl)cc4F)CO5)CC3)n(C[C@@H]3CCO3)c2c1 [Crystal form E of tromethamine salt]
98.3
